Reference source: paper PMC5081312

Reported LC50/EC50 ratio (therapeutic ratio) values for a set of compounds
Tested on: cyprids of barnacle B. amphitrite
protocol_description: Anti-larval settlement bioassay (antifouling activity and larval toxicity)
Format: in vivo
applied_conditions: B. amphitrite cyprids; ratio >15 considered non-toxic
reported_property: LC50/EC50 ratio (therapeutic ratio)

[
  {
    "compound": "COc1cc(C)cc(Oc2cc(C)cc(OC)c2OC)c1O",
    "reported_property": "LC50/EC50 ratio (therapeutic ratio)",
    "measured_result": ">9.01"
  },
  {
    "compound": "CO[C@H]1[C@@H](O)CC/C(C)=C/[C@H]2C=C(C)[C@@H](C)[C@H]3[C@H](CC(C)C)NC(=O)[C@]32C(=O)C[C@@H]1O",
    "reported_property": "LC50/EC50 ratio (therapeutic ratio)",
    "measured_result": ">6.65"
  },
  {
    "compound": "Cc1cc(O)cc(Oc2cc(C)cc(O)c2O)c1",
    "reported_property": "LC50/EC50 ratio (therapeutic ratio)",
    "measured_result": ">3.54"
  },
  {
    "compound": "CC(C)C(C)C=CC(C)C1CCC(C2=CC(O)C3CC(O)CCC3(C)C2=O)C1(C)CCO (centres unmarked)",
    "reported_property": "LC50/EC50 ratio (therapeutic ratio)",
    "measured_result": ">1.25"
  },
  {
    "compound": "C[C@]12CCC[C@H](O1)c1c(cc3c(c1O)C(=O)c1c(O)cc(O)cc1C3=O)O2",
    "reported_property": "LC50/EC50 ratio (therapeutic ratio)",
    "measured_result": ">14.7"
  },
  {
    "compound": "CC[C@H](O)c1cc(O)c2c(c1)C(=O)c1cc(O)cc(O)c1C2=O",
    "reported_property": "LC50/EC50 ratio (therapeutic ratio)",
    "measured_result": 13.4
  },
  {
    "compound": "CC(=O)OCCC1(C)C(C2=CC(OC(C)=O)C3CC(OC(C)=O)CCC3(C)C2=O)CCC1C(C)C=CCC(C)C (centres unmarked)",
    "reported_property": "LC50/EC50 ratio (therapeutic ratio)",
    "measured_result": 8.00
  },
  {
    "compound": "CCCCCCCCn1sc(Cl)c(Cl)c1=O [Sea-Nine 211™, reference compound]",
    "reported_property": "LC50/EC50 ratio (therapeutic ratio)",
    "measured_result": 20.3
  },
  {
    "compound": "CCCOc1cc(C)cc(Oc2cc(C)cc(O)c2)c1",
    "reported_property": "LC50/EC50 ratio (therapeutic ratio)",
    "measured_result": 11.4
  },
  {
    "compound": "COc1cc(C)c(C(=O)O[C@@H]2[C@H](OC(C)=O)[C@@H](COC(C)=O)O[C@H]2n2ccc(=O)[nH]c2=O)c(OC)c1",
    "reported_property": "LC50/EC50 ratio (therapeutic ratio)",
    "measured_result": ">2.22"
  },
  {
    "compound": "CCCCCOc1cc(C)cc(Oc2cc(C)cc(OCCCCC)c2)c1",
    "reported_property": "LC50/EC50 ratio (therapeutic ratio)",
    "measured_result": ">11.1"
  }
]

----------
System: cyprids of barnacle B. amphitrite
protocol_description: Anti-larval settlement bioassay (antifouling activity and larval toxicity)
Format: in vivo
applied_conditions: Amphibalanus amphitrite, 48 h, cyprids of B. amphitrite, 48 h at 28 °C, concentration where 50% of larvae were inhibited to settle vs negative control; read-out: EC50 (larval settlement inhibition)

[
  {
    "structure_smiles_string": "Cc1cc(O)cc(Oc2cc(C)cc(OC(=O)c3ccc(Br)cc3)c2)c1",
    "unit_spec": "µM",
    "result_modifier": "=",
    "EC50": 2.42
  },
  {
    "structure_smiles_string": "Cc1cc(O)cc(Oc2cc(C)cc(O)c2)c1",
    "unit_spec": "µM",
    "result_modifier": "=",
    "EC50": 32.6
  },
  {
    "structure_smiles_string": "Cc1cc(O)cc(Oc2cc(C)cc(O)c2O)c1",
    "unit_spec": "µM",
    "result_modifier": "=",
    "EC50": 57.3
  },
  {
    "structure_smiles_string": "Cc1cc(O)cc(Oc2cc(C)cc(OC(=O)c3ccccc3)c2)c1",
    "unit_spec": "µM",
    "result_modifier": "=",
    "EC50": 12.6
  },
  {
    "structure_smiles_string": "CC1=CC(=O)c2c(C)cc3oc(=O)c(C)c-3cc21",
    "unit_spec": "µM",
    "result_modifier": ">",
    "EC50": 104
  }
]
